Ref: paper PMC8941652

# MIC per entry
Tested on: Multidrug resistant Mtb strains
Experiment: microbe, parasite or virus in culture
Assay type: cell-based
Settings: Mycobacterium tuberculosis

Some molecules with recorded MIC:
Nc1cc(O)c(C(=O)O)cc1F [Compound 11, 4-Amino-5-fluoro-2-hydroxybenzoic acid] | 6.3 to 50 µM
NNC(=O)c1ccncc1 [Isoniazid] | 0.4 to 19 µM
CC(=O)NC[C@H]1CN(c2ccc(N3CCOCC3)c(F)c2)C(=O)O1 [Linezolid] | 0.8 to 1.4 µM

Next item in the queue.
Ask | Query: MIC; subject: Nc1ccc(C(=O)O)c(O)c1 [PAS, para-Aminosalicylic acid]
Reply | 0.2 to 3.1 µM
